test: Cytotoxicity against mouse J774 cells incubated for 24 hrs by resazurin dye based fluorescence assay; format: cell-based
measured.parameter: CC50 at 24 h (µM)
Field format: number, assumed µM, no unit text.

Past entries and their recorded results:
{"smiles": "COc1cc(/C=C/C=N/NC(=O)c2ccc3[nH]c(C)nc3c2)ccc1O", "measured.parameter": "CC50 at 24 h", "measured.number": 161}
{"smiles": "COc1cc(/C=N/NC(=O)c2ccc3[nH]c(C)nc3c2)ccc1O", "measured.parameter": "CC50 at 24 h", "measured.number": 161}
{"smiles": "Cc1nc2cc(C(=O)O)ccc2[nH]1", "measured.parameter": "CC50 at 24 h", "measured.number": 264}

Now let's try a different one.
Value of CC50 at 24 h reported for the molecule Cc1nc2cc(C(=O)NN)ccc2[nH]1 is 233
